Below, each entry is listed with its recorded growth.
Test system: RPMI-8226 leukemia
PROTOCOL SUMMARY: NCI-60 one-dose screen, 48 h (100 = growth as untreated, 0 = no growth, -100 = all killed)
EXPERIMENTAL CONDITIONS: 10 µM unless noted
The panel holds about 83,000 compounds, 20% with a hit somewhere; the sample as a whole holds those more often.
Record the value in %, omitting the unit from your answer.

-- ask Which measured growth value corresponds to "C=C1CC[C@H](C(C)C)[C@@H]2[C@H]1[C@H]1CC(=C)[C@@H](O)CC[C@@](C)(O)[C@@H]2O1" ?
-- reply 93.3

-- ask Try this compound too: "COc1ccc(-c2c(C(=O)NS(C)(=O)=O)n(Cc3cccc(C(F)(F)F)c3)c3ccccc23)cc1"
-- reply 81.2

* * *

System: LOX IMVI melanoma
PROTOCOL SUMMARY: NCI-60 one-dose screen, 48 h (100 = growth as untreated, 0 = no growth, -100 = all killed)
EXPERIMENTAL CONDITIONS: 10 µM unless noted
This is part of a sample that, as a whole, favours compounds with a hit. Of some 83,000 tested, about 20% had one in any assay.
Each record's class is read off its growth using these ranges: lower level: < 30%; middle level: ≥ 30% and < 90%; upper level: ≥ 90%

Below are worked cases with known answers.
-- ask Please indicate the class for "COc1ccc(C(=O)/C=C/c2sc(Cl)nc2Cl)cc1" based on its growth.
-- reply lower level

-- ask Another molecule to check: COc1ccc2cc(C(C)C(=O)Nc3ccc(-c4n[nH]c(=S)n4C4CCCCC4)cc3)ccc2c1 (stereo not given)
-- reply middle level

-- ask Now this one: O=C(CS(=O)c1oc(-c2cccs2)nc1S(=O)(=O)c1ccc(Br)cc1)c1ccccc1 (stereo not given)
-- reply upper level

-- ask Likewise for "Fc1cc(-c2nnc3n2NC(=Nc2ccc(Cl)cc2)CS3)c(Cl)cc1Cl" ?
-- reply middle level

-- ask Another: "CNC(=O)c1cc(-n2ccc3cc(NC(=O)c4ccc(N5CCOCC5)c(C(F)(F)F)c4)ccc32)ccn1"
-- reply middle level

---
-- ask Hello team, could you let me know which band the following molecule falls into: CCN(CC)c1ccc(C2=NN(C(C)=O)C(c3cc(OC)c(OC)c(OC)c3)C2)cc1 (stereo not given)
-- reply middle level

-- ask For CC([C@H]1CCC2C3CCC4C(=O)C(NC=O)=CC[C@]4(C)C3CC[C@@]21C)N(C)C (stereo not given in full) then?
-- reply lower level

-- ask "O=C1CN(CCN2CC(=O)N(Cc3ccccc3)C(=O)C2)CC(=O)N1Cc1ccccc1" , same question.
-- reply upper level

-- ask Now consider "O=C(/C=C/c1ccc([N+](=O)[O-])o1)NNC(=O)c1cc2ccccc2cc1O" .
-- reply lower level

-- ask Thanks! And "Cc1ccc2c(n1)C(=O)C(Cl)=C(Nc1ccccc1C(C)C)C2=O" ?
-- reply lower level

-- ask Request: "Nc1nc2ccccc2c2c(=O)c3cc(F)ccc3sc12"
-- reply upper level

* * *

Let's look at some molecules and their measured growth.
System: OVCAR-4 ovarian
PROTOCOL SUMMARY: NCI-60 one-dose screen, 48 h (100 = growth as untreated, 0 = no growth, -100 = all killed)
EXPERIMENTAL CONDITIONS: 10 µM unless noted
The panel holds about 83,000 compounds, 20% with a hit somewhere; the sample as a whole holds those more often.
Just the number please, in %, no unit attached.

Example results:
-- ask Form field: reported growth of CCN1C(=O)N(CC)C2Nn3c(s/c(=C4\C(=O)N(CCC(C)C)c5ccccc54)c3=O)=NC21 (centres undefined)
-- reply 63.5

-- ask What do you have for COc1cc(C2CC(c3cccc(Br)c3)=NN2C(C)=O)cc(OC)c1OC (centres undefined) ?
-- reply 41.7

-- ask Repeat with "COc1ccc2sc3c(NCCCNCCO)nc4ccccc4c3c(=O)c2c1"
-- reply 4.38

-- ask Repeat for the following molecule: "COC(=O)CCC/C=C\C[C@H]1C=CC(=O)/C1=C/C[C@@H](O)CCc1cccc(C(F)(F)F)c1"
-- reply 20

Next:
-- ask Which value of growth has been reported for "CCCCCCCCCCCCCCCCCCOc1ccc(CC(=O)OCC[N+]2(C)CCCCC2)cc1" in the records?
-- reply 86.8

-- ask Repeat with COc1ccc(C2CC(c3ccc(Nc4nc(Nc5ccc(F)cc5)nc(Nc5ccc(Cl)cc5)n4)cc3)=NN2C(C)=O)cc1 (centres undefined)
-- reply 99.3

-- ask Now the molecule "NCCCNc1nc2ccc(Cl)cc2c2c(=O)c3cc(F)ccc3sc12"
-- reply 11.3

-- ask // repeat for CC1(C)C2CC1C1(/C=N/NC(N)=S)C(C2)C(C#N)(C#N)C1(C#N)C#N (centres undefined) and report
-- reply 94.3

-- ask Then what about the molecule "O=S(=O)(NCCCNc1cc(-c2c(-c3cccc(O)c3)nc3sccn23)ccn1)c1cccc2ccccc12" ?
-- reply 36.4

* * *

Tested on: SK-MEL-5 melanoma
PROTOCOL SUMMARY: NCI-60 one-dose screen, 48 h (100 = growth as untreated, 0 = no growth, -100 = all killed)
EXPERIMENTAL CONDITIONS: 10 µM unless noted
Experimental: Growth inhibition of the SK-MEL-5 human tumor cell line is measured as a screen for anti-cancer activity. Cells are grown in 96 well plates and exposed to the test compound for 48 hours. Compounds are tested at a single concentration, which is 10^-5 M for most compounds. The reported endpoint is percent growth (GI% or GIPRCNT), where numbers from 0 - 100% represent growth inhibition, and numbers from -100% - 0 represent cell death. For example, a value of 40 represents 60% growth inhibition. […]
The panel holds about 83,000 compounds, 20% with a hit somewhere; the sample as a whole holds those more often.
Label no (0) if growth falls below 30%; label yes (1) in every other case.

-- ask Form field: growth at least 30%? Entry: "COc1ccc(C2=Nn3c(nnc3-c3cc(Cl)cc(Cl)c3Cl)SC2)cc1"
-- reply no (0)

-- ask Another: CC1=C(SCCC(=O)OC(C[Se]C2=C(C)C(=O)c3ccccc3C2=O)C(=O)NC(C)(C)C)C(=O)c2ccccc2C1=O (centres undefined)
-- reply no (0)

-- ask Can you check COc1c(C2CC(=O)Nc3c2c(C)nn3-c2nc3ccccc3[nH]2)cc2c(c1OC)OCO2 (centres undefined) next?
-- reply yes (1)

-- ask Now the compound "COc1nc2ccc(C)cc2cc1-c1nc2c(cnn2-c2ccc(Br)cc2)c(=O)[nH]1"
-- reply yes (1)

-- ask Also "CN1C(=O)CNC(=O)[C@H](NC(=O)c2nc3ccccc3cc2O)CSSC[C@H]1C(=O)NCCc1nc2ccccc2cc1O" ?
-- reply yes (1)

Next:
-- ask Hi team, for "CN1CCN(c2ccc(-c3cc4c(Nc5ccc(F)c(Cl)c5)ncnn4c3)cc2)CC1" , is the recorded growth at or above 30%?
-- reply yes (1)

-- ask Similarly, "NC1CCN(c2nc(Nc3cccc(C(F)(F)F)c3)c3c(=O)[nH]ccc3n2)CC1" ?
-- reply no (0)

-- ask Similarly, "O=C(Cc1ccc(F)c(Cl)c1)Nc1cc(C2(C(F)(F)F)CC2)nn1CC1CCCCC1" ?
-- reply no (0)

-- ask And the next one, NC1=C(c2nn[nH]n2)C(c2ccccc2Cl)c2ccc3ccccc3c2O1 (centres undefined) ?
-- reply yes (1)

* * *

Tested on: MOLT-4 leukemia
PROTOCOL SUMMARY: NCI-60 one-dose screen, 48 h
EXPERIMENTAL CONDITIONS: 10 µM unless noted
Compounds without any hit were thinned out: in the full panel of roughly 83,000, 20% have a hit. Calls of active or inactive are those of the source. How the source made its calls: active means growth percent below 10; inactive means the rest.
Classes to choose from: active, inactive

The examples below pair each entry with its known result.
-- ask What classification did "COc1ccc(CNC(=O)C(=O)[C@H](Cc2ccccc2)NC(=O)c2[nH]c3ccccc3c(=O)c2C)cc1" end up with in this test?
-- reply inactive

-- ask Please give the result for "COc1ccccc1/C=C1\Oc2cc(OCCN3CCC(Cc4ccccc4)CC3)ccc2C1=O" too.
-- reply inactive

-- ask One more compound: "CCOC(=O)c1[nH]c(C)c(C(=O)OCc2ccccc2C#N)c1C"
-- reply inactive

-- ask Also Cc1cccc2c3c(sc12)C(c1ccc(Cl)cc1)C(C#N)=C(N)O3 (stereo unspecified) ?
-- reply inactive

-- ask Another compound to look at: "Oc1ccc(CCl)c2cccnc12"
-- reply inactive

-- ask Please answer likewise for CC([C@H]1CCC2C3CCC4C[C@@H](NC=O)CC[C@]4(C)C3CC[C@@]21C)N(C)C (stereo partly specified)
-- reply active

***
-- ask Kindly provide the recorded test outcome for the following compound: CC1Cc2c(ncn3c(-c4ccc(F)cc4)nnc23)N(C)c2ccccc21 (stereo unspecified)
-- reply inactive

-- ask Moving on to the next compound: "COc1ccc2sc3c(NCCCNCCO)nc4ccccc4c3c(=O)c2c1"
-- reply inactive

-- ask Quick one: "Nc1cc2c(cc1Br)-c1cc(Cl)ccc1C2=O"
-- reply inactive

-- ask Do the same for O=C(CCOCCNC(=O)COc1ccc2c(c1)OCC(c1ccc(F)cc1)C2=O)NCCCC(O)(P(=O)(O)O)P(=O)(O)O (stereo unspecified) please
-- reply inactive

-- ask Now this one: "C[N+]1=C(/C=C/c2ccc(O)c3ncccc23)C(C)(C)c2ccccc21"
-- reply inactive

-- ask Also need "Cc1cc(Cl)ccc1NS(=O)(=O)c1ccc(-c2cnc(C3CC3)o2)cc1" , thanks.
-- reply active

-- ask Also check "Cc1nc2ccccc2c(/C=C/c2ccc(Cl)cc2)c1C(=O)/C=C/c1ccc(C(F)(F)F)cc1"
-- reply active

-- ask Then "O=C1COCCN1c1ccc(NCc2cn(C(=O)c3ccc(Cl)cc3)c3ccccc23)cc1" ?
-- reply inactive

-- ask Further, for "COc1cc(C(=O)c2cc(C)c3[nH]c4ccc(O)cc4c3c2C)cc(OC)c1OC" ?
-- reply inactive
